- tested-system: JAK1 (Homo sapiens, UniProt P23458)
- Sequence (P23458 whole entry): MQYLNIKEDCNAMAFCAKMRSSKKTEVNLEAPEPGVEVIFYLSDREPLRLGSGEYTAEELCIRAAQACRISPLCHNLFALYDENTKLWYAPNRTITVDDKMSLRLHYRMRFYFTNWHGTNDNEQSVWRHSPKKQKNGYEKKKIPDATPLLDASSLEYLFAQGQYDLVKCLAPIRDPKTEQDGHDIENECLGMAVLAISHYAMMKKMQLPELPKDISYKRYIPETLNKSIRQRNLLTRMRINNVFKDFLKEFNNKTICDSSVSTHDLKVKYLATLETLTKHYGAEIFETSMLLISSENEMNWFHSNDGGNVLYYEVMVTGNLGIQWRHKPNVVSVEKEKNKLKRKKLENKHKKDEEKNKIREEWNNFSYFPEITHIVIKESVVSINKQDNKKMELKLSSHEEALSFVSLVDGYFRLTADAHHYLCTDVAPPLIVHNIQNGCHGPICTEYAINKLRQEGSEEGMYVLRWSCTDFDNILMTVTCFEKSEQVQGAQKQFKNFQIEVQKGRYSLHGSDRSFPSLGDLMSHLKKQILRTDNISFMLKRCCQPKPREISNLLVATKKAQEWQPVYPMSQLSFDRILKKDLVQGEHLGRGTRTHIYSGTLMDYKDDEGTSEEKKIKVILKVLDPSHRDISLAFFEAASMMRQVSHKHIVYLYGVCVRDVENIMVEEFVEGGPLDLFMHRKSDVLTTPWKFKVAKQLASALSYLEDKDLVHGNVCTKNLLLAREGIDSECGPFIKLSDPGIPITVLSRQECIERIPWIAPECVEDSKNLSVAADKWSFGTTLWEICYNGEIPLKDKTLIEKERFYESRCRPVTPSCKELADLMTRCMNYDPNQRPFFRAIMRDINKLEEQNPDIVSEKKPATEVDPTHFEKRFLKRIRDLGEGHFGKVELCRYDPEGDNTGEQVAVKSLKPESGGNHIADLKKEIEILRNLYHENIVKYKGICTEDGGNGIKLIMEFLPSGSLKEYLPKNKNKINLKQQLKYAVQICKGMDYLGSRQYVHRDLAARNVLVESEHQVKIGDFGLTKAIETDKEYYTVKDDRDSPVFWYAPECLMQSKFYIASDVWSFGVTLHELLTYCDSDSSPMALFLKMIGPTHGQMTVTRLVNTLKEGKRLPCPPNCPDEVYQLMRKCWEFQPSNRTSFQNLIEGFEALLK
- experiment-notes: Detection of enzyme activity inhibition of JAK kinases (ULight-JAK substrate, Eu-antibody), JAK1
- Format: biochemical
- condition-label: JAK1 20 nM, ATP 40 μM, substrate 50 nM, 2 hours reaction at room temperature; read-out: JAK1 half-maximum inhibitory concentration (IC50)
pIC50: −log10 of the molar value.
endpoint: pIC50

Reference set, count: 6
molecule	recorded-number
CNC(=O)c1ncc(Nc2nccc(-c3ccn(C4(CC#N)CN(C(=O)[C@@H]5CC5(F)F)C4)c3)n2)cc1C	8.05
Cc1cc(Nc2nccc(-c3ccn(C4(CC#N)CN(C(=O)[C@@H]5CC5(F)F)C4)c3)n2)cnc1C(N)=O	7.92
CNC(=O)c1ncc(Nc2nccc(-c3cnn(C4(CC#N)CN(C(=O)[C@@H]5CC5(F)F)C4)c3)n2)cc1C	7.27
CCNC(=O)c1ccc(Nc2nccc(-c3cnn(C4(CC#N)CN(C(=O)[C@@H]5CC5(F)F)C4)c3)n2)cc1C	7.35
CC(CO)c1ccc(Nc2nccc(-c3cnn(C4(CC#N)CN(C(=O)[C@@H]5CC5(F)F)C4)c3)n2)cn1 (some centres unmarked)	6.65
CCNC(=O)c1ccc(Nc2nccc(-c3cnn(C4(CC#N)CN(C(=O)[C@@H]5CC5(F)F)C4)c3)n2)cc1	7.74

1: Cc1cc(Nc2nccc(-c3cnn(C4(CC#N)CN(C(=O)[C@@H]5CC5(F)F)C4)c3)n2)cnc1C(N)=O
2: CC(CO)c1ccc(Nc2nccc(-c3ccn(C4(CC#N)CN(C(=O)[C@@H]5CC5(F)F)C4)c3)n2)cn1 (some centres unmarked)
Query block: For the two items 1 and 2 , which reports the higher pIC50 value? Give the label under which the chosen entry appears.
Result block: 2
(2: 7.26, 1: 6.90)
